Every entry's value here was drawn from paper PMC12990037.

Tested on: U2OS DR-GFP cells
Assay: I-SceI-based HR repair reporter assay
Assay type: cell-based
Conditions: Homo sapiens, 72 h
Experimental: 3 MUS81 inhibitors suppress HR and BIR. (A) I-SceI-based BIR repair efficiency was measured in U2OS BIR-GFP cells treated with DMSO, two different siRNAs targeting MUS81, or the indicated concentrations of MU262 and MU876, and their control analogues for 72 h. […] (C,D) I-SceI-based HR (C) and NHEJ (D) repair efficiency was measured using U2OS DR-GFP and EJ5-GFP cells, respectively, following treatment with DMSO, MU262,MU876, or their control analogues for 72 h. […]
pIC50: −log10 of the molar value.
In this section, each of the compounds is paired with its reported pIC50.

SAMPLE SMILES	pIC50
Cc1cc(=O)[nH]c(-n2nc(-c3ccccc3)cc2NC(=O)c2cc(-c3ccccc3)on2)n1	6.00 to 6.30
CCc1nn2c(O)c(-c3nc4ccccc4[nH]3)nnc2c1-c1ccc(F)cc1	6.00 to 6.30
